# System: field corn (Zea mays L., var. Dekalb 535, CORN)
# Experiment Notes: Post-emerge test, crop safety
# Assay type: in vivo
# Experimental Setup: post-emerge, 63 g ai/ha, 14 days after application, rating scale 0-100
# binarize CORN phytotoxicity rating (crop damage): threshold 5 inclusive, high side 1.0, low side 0.0

Compound: COc1c(Cl)cc(F)c(-n2c(=O)cc(C(F)(F)F)n(C)c2=O)c1NC(=O)c1ccc2cccc(F)c2c1
Classification: 0.0
--
Compound: COc1c(Br)cc(F)c(-n2c(=O)cc(C(F)(F)F)n(C)c2=O)c1NC(=O)C=Cc1ccccc1 [2-175]
Classification: 1.0
--
Compound: CCOC(=O)C(C)SCC(=O)Nc1c(OC)c(Cl)cc(F)c1-n1c(=O)cc(C(F)(F)F)n(C)c1=O (centres unmarked)
Classification: 0.0
--
Compound: N#CCOc1c(Cl)cc(F)c(-n2c(=O)cc(C(F)(F)F)n(N)c2=O)c1NC(=O)c1ccc2ccccc2c1
Classification: 1.0
--
Compound: COc1c(Cl)cc(F)c(-n2c(=O)cc(C(F)(F)F)n(C)c2=O)c1NC(=O)COc1ccc(F)cc1
Classification: 1.0
--
Compound: COc1c(C#N)cc(F)c(-n2c(=O)cc(C(F)(F)F)n(C)c2=O)c1NC(=O)C=Cc1ccccc1
Classification: 1.0
--
Compound: COc1cc2ccccc2cc1C(=O)Nc1c(OC)c(Cl)cc(F)c1-n1c(=O)cc(C(F)(F)F)n(C)c1=O
Classification: 1.0
--
Compound: COc1c(Cl)cc(F)c(-n2c(=O)cc(C(F)(F)F)n(C)c2=O)c1NC(=O)CSC(C)C
Classification: 0.0

----------
# System: lambsquarters (Chenopodium album, CHEAL)
# Experiment Notes: Pre-emerge test, greenhouse herbicide activity screening
# Format: in vivo
# Experimental Setup: pre-emerge, 250 g ai/ha, 14 days after application, scale 0-100

Compound: COc1c(Cl)cc(F)c(-n2c(=O)cc(C(F)(F)F)n(C)c2=O)c1NC(=O)CCc1cc(C)ccc1C [2-130]
Assay System: lambsquarters (Chenopodium album, CHEAL)
phytotoxicity rating CHEAL: 100

Compound: COc1c(Cl)cc(F)c(-n2c(=O)cc(C(F)(F)F)n(C)c2=O)c1NC(=O)C=Cc1cccc(Cl)c1
Assay System: lambsquarters (Chenopodium album, CHEAL)
phytotoxicity rating CHEAL: 100

Compound: COc1c(Cl)cc(F)c(-n2c(=O)cc(C(F)(F)F)n(C)c2=O)c1NC(=O)CSc1ccc2ccccc2c1
Assay System: lambsquarters (Chenopodium album, CHEAL)
phytotoxicity rating CHEAL: 100

----------
# System: upland rice (Oryza sp., var. Tebonnet, RICE)
# Experiment Notes: Pre-emerge test, crop safety
# Assay type: in vivo
# Experimental Setup: 63 g ai/ha; pre-emerge; rated 14 days after application; 0 = no damage, 100 = complete death
Test Readout: Pre-emerge crop damage RICE (phytotoxicity rating, scale 0-100)

Compound: CCOC(=O)C(C)Nc1cc(Cl)cc(F)c1-n1c(=O)cc(C(F)(F)F)n(C)c1=O (stereo not drawn)
Value Observed: 60
--
Compound: C=CC(=O)N(C(=O)C=C)c1c(OC)c(Cl)cc(F)c1-n1c(=O)cc(C(F)(F)F)n(C)c1=O
Value Observed: 0
--
Compound: CCn1c(C(F)(F)F)cc(=O)n(-c2c(F)cc(Cl)c(OC)c2N)c1=O
Value Observed: 10
--
Compound: COc1c(Cl)cc(F)c(-n2c(=O)cc(C(F)(F)F)n(C)c2=O)c1NS(=O)(=O)c1ccc(C)cc1
Value Observed: 0
--
Compound: COc1c(Cl)cc(F)c(-n2c(=O)cc(C(F)(F)F)n(C)c2=O)c1NC(=O)C1CCCCC1
Value Observed: 10
--
Compound: CCOC(=O)COc1c(Cl)cc(F)c(-n2c(=O)cc(C(F)(F)F)n(C)c2=O)c1N
Value Observed: 30
--
Compound: C#CCOc1c(Cl)cc(F)c(-n2c(=O)cc(C(F)(F)F)n(C)c2=O)c1N
Value Observed: 80
--
Compound: COc1c(Cl)cc(F)c(-n2c(=O)cc(C(F)(F)F)n(C)c2=O)c1NC(=O)c1ccc(C)cc1
Value Observed: 90
--
Compound: COc1c(Cl)cc(F)c(-n2c(=O)cc(C(F)(F)F)n(C)c2=O)c1NC(=O)c1ccc(C(C)(C)C)cc1
Value Observed: 0
